The values you see were collected from patent US10450297B2.

- EXPERIMENTAL SYSTEM: FAK kinase (catalytic construct FAK(410-689)) (Homo sapiens (Human), UniProt Q05397)
- Sequence (Q05397 410-689): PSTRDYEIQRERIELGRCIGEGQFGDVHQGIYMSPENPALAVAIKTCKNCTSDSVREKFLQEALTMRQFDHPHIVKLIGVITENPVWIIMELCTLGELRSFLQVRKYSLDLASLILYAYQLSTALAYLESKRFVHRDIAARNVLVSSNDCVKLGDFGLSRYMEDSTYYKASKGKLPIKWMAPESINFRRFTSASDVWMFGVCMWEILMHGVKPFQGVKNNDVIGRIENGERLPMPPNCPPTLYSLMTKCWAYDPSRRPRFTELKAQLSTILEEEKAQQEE
Counter-ions that a name gives are not always drawn.
QUANTITY KIND: IC50 (nM)

Below: 3 molecules and their reported IC50.
Q: GET IC50 | system: FAK kinase (catalytic construct FAK(410-689)) (Homo sapiens (Human), UniProt Q05397) | item: CCC[C@H](CO)NC(=O)c1ccc(Nc2ncc(C(F)(F)F)c(NCc3cccnc3N(C)S(C)(=O)=O)n2)cc1
Ans: 5.8

Q: Would you please give the reported IC50 of CS(=O)(=O)c1cccc(CNc2nc(Nc3ccccc3)ncc2C(F)(F)F)c1 with FAK kinase (catalytic construct FAK(410-689)) (Homo sapiens (Human), UniProt Q05397)?
Ans: 1.02

Q: Check FAK kinase (catalytic construct FAK(410-689)) (Homo sapiens (Human), UniProt Q05397) data and give IC50 for CN(c1ncccc1CNc1nc(Nc2ccc(C(=O)O)cc2)ncc1C(F)(F)F)S(C)(=O)=O .
Ans: 188

[1] CN(c1ncccc1CNc1nc(Nc2cccc(C(=O)O)c2)ncc1C(F)(F)F)S(C)(=O)=O [Example 10, trifluoroacetic acid salt]
[2] CN(c1ncccc1CNc1nc(Nc2cccc(C(=O)NC3CCOCC3)c2)ncc1C(F)(F)F)S(C)(=O)=O
Q: Pick one: 1 or 2 . Which has the bigger IC50 number? Label of pick, please.
Ans: 2

[A] Cc1ccnc(N(C)S(C)(=O)=O)c1CNc1nc(Nc2ccccc2)ncc1C(F)(F)F
[B] CN(C)C(=O)CNC(=O)c1cccc(Nc2ncc(C(F)(F)F)c(NCc3cccnc3N(C)S(C)(=O)=O)n2)c1
[C] CN(c1ncccc1CNc1nc(Nc2ccc(C(=O)N3CC[C@H](O)C3)cc2)ncc1C(F)(F)F)S(C)(=O)=O
[D] C[C@@H]1COCCN1C(=O)c1ccc(Nc2ncc(C(F)(F)F)c(NCc3cccnc3N(C)S(C)(=O)=O)n2)cc1
Q: Sort by IC50, descending. Answer format: the labels, in the requested order.
Ans: D, B, C, A

###

Reported IC50 for target or system FAK kinase (catalytic construct FAK(410-689)) (Homo sapiens (Human), UniProt Q05397), by entry.
QUANTITY KIND: IC50 (nM)

Example results:
Q: # assay system FAK kinase (catalytic construct FAK(410-689)) (Homo sapiens (Human), UniProt Q05397): give IC50 of CN(c1cccc(CNc2nc(Nc3ccc(S(C)(=O)=O)nc3)ncc2C(F)(F)F)c1)S(C)(=O)=O [Compound 26]
Ans: 154

Q: Quote FAK kinase (catalytic construct FAK(410-689)) (Homo sapiens (Human), UniProt Q05397) IC50 for entry CC(=O)NCc1ccc(Nc2ncc(C(F)(F)F)c(NCc3cccnc3N(C)S(C)(=O)=O)n2)cc1 [Example 5] .
Ans: 0.6

Q: Give the observed IC50 of CN(c1cccnc1CNc1nc(Nc2ccc(C(N)=O)c(F)c2)ncc1C(F)(F)F)S(C)(=O)=O [Compound 331] for FAK kinase (catalytic construct FAK(410-689)) (Homo sapiens (Human), UniProt Q05397).
Ans: 1.77

Q: Give the observed IC50 of CN(c1cccnc1CNc1nc(Nc2ccccc2)ncc1C(F)(F)F)S(C)(=O)=O [Compound 76] for FAK kinase (catalytic construct FAK(410-689)) (Homo sapiens (Human), UniProt Q05397).
Ans: 93

Q: Provide IC50, tested on FAK kinase (catalytic construct FAK(410-689)) (Homo sapiens (Human), UniProt Q05397), for CN(c1cccc(CNc2nc(Nc3ccc(C(N)=O)c(Cl)c3)ncc2C(F)(F)F)c1)S(C)(=O)=O [Compound 357] .
Ans: 1.47

[A] CN(c1ncccc1CNc1nc(Nc2cccc(CO)c2)ncc1C(F)(F)F)S(C)(=O)=O [Compound 283]
[B] CN(c1ncccc1CNc1nc(Nc2ccc(C(F)(F)F)nc2)ncc1C(F)(F)F)S(C)(=O)=O [Compound 81]
Q: Just curious, which one has the larger IC50 reading, A or B ? Answer = label.
Ans: B
(B: 15.8 nM, A: 0.6 nM)
